FYI, the data here is from patent US20140066365A1.

test system: EcR2: Cephalosporinase-Hyperproducing Strain of Escherichia coli; assay: Antibiogram, MIC by the VITEK 1 system; type: cell-based; conditions: EcR2; from MIC; Cc CA-SFM 2011
MEASURED QUANTITY: CA-SFM Interpretation

CCn1cc(C(=O)O)c(=O)c2ccc(C)nc21 [Nalidixic acid]; Resistant
CCn1cc(C(=O)O)c(=O)c2cc(F)c(N3CCN(C)CC3)cc21 [Pefloxacin]; Resistant
CC(=O)OCC1=C(C(=O)O)N2C(=O)[C@@H](NC(=O)Cc3cccs3)[C@H]2SC1 [C1G, Cefalotine]; Resistant
CC1(C)S[C@@H]2[C@H](NC(=O)[C@H](C(=O)O)c3ccsc3)C(=O)N2[C@H]1C(=O)O [Ticarcillin]; Resistant

# ---- query compound ----
IN: Given the compound CC1(C)S[C@@H]2[C@H](NC(=O)[C@H](N)c3ccc(O)cc3)C(=O)N2[C@H]1C(=O)O [Amoxicillin] , what is its reported CA-SFM Interpretation?
OUT: Resistant

###

test system: EcR2: Cephalosporinase-Hyperproducing Strain of Escherichia coli; assay: Antibiogram by the disk diffusion technique; format: cell-based; settings: EcR2, disk diffusion, Table B1
Listing of recorded Diameter by entry.

CCN[C@@H]1C[C@H](N)[C@@H](O[C@H]2OC(CN)=CC[C@H]2N)[C@H](O)[C@H]1O[C@H]1OC[C@](C)(O)[C@H](NC)[C@H]1O [Netilmicin]; 21
CO[C@@]1(NC(=O)Cc2cccs2)C(=O)N2C(C(=O)O)=C(COC(N)=O)CS[C@@H]21 [Cefoxitin]; 11
CC(C)(O/N=C(\C(=O)N[C@@H]1C(=O)N2C(C(=O)[O-])=C(C[n+]3ccccc3)CS[C@H]12)c1csc(N)n1)C(=O)O [Ceftazidime]; 20
CO/N=C(\C(=O)N[C@@H]1C(=O)N2C(C(=O)O)=C(COC(C)=O)CS[C@H]12)c1csc(N)n1 [Cefotaxime]; 24

# ---- query molecule ----
IN: Given the molecule NC[C@H]1O[C@H](O[C@H]2[C@H](O)[C@@H](O[C@H]3O[C@H](CO)[C@@H](O)[C@H](N)[C@H]3O)[C@H](N)C[C@@H]2N)[C@H](N)C[C@@H]1O [Tobramycin] , what is its reported Diameter?
OUT: 10

###

system: PaR3: Pseudomonas aeruginosa; experiment: Antibiogram, MIC by the VITEK 2 system; type: cell-based; conditions: Pseudomonas aeruginosa, Table H2, read-out: MIC
Listing of recorded MIC by entry.

# annotated cases, reported MIC shown
C[C@@H](O)[C@H]1C(=O)N2C(C(=O)O)=C(S[C@@H]3CN[C@H](C(=O)N(C)C)C3)[C@H](C)[C@H]12; ≥ 16 µg/mL
CC1(C)S[C@@H]2[C@H](NC(=O)[C@H](C(=O)O)c3ccsc3)C(=O)N2[C@H]1C(=O)O; ≥ 128 µg/mL
C[C@@H](O)[C@H]1C(=O)N2C(C(=O)O)=C(SCCN=CN)C[C@H]12; ≥ 16 µg/mL
NCC[C@H](O)C(=O)N[C@@H]1C[C@H](N)[C@@H](O[C@H]2O[C@H](CN)[C@@H](O)[C@H](O)[C@H]2O)[C@H](O)[C@H]1O[C@H]1O[C@H](CO)[C@@H](O)[C@H](N)[C@H]1O; 4 µg/mL
NC[C@H]1O[C@H](O[C@H]2[C@H](O)[C@@H](O[C@H]3O[C@H](CO)[C@@H](O)[C@H](N)[C@H]3O)[C@H](N)C[C@@H]2N)[C@H](N)C[C@@H]1O; ≥ 16 µg/mL

IN: Given the compound CCN1CCN(C(=O)N[C@@H](C(=O)N[C@@H]2C(=O)N3[C@@H]2SC(C)(C)[C@@H]3C(=O)O)c2ccccc2)C(=O)C1=O , what is its reported MIC?
OUT: ≥ 128 µg/mL

IN: Given the compound CC(C)(O/N=C(\C(=O)N[C@@H]1C(=O)N2C(C(=O)[O-])=C(C[n+]3ccccc3)CS[C@H]12)c1csc(N)n1)C(=O)O , what is its reported MIC?
OUT: 4 µg/mL

IN: Given the compound CN(C)c1ccc(O)c2c1C[C@H]1C[C@H]3[C@H](N(C)C)C(O)=C(C(N)=O)C(=O)[C@@]3(O)C(O)=C1C2=O , what is its reported MIC?
OUT: 4 µg/mL

###

tested on: EcR1: Penicillinase-Producing Escherichia coli without Associated Resistance; experiment: Antibiogram by the disk diffusion technique; type: cell-based; settings: EcR1, cells that print a diameter, Table A2
MEASURED QUANTITY: MIC mg/L (diameter in mm)
State just the number; it will be interpreted in mm.

# annotated cases, reported MIC mg/L (diameter in mm) shown
CN(C)c1ccc(O)c2c1C[C@H]1C[C@H]3[C@H](N(C)C)C(O)=C(C(N)=O)C(=O)[C@@]3(O)C(O)=C1C2=O; 20
C[C@H]1[C@H](NC(=O)/C(=N\OC(C)(C)C(=O)O)c2csc(N)n2)C(=O)N1S(=O)(=O)O; 28
C[C@@H]1O[C@@H]1P(=O)(O)O; 24
CO/N=C(\C(=O)N[C@@H]1C(=O)N2C(C(=O)[O-])=C(C[N+]3(C)CCCC3)CS[C@H]12)c1csc(N)n1 [Cefepime]; 27

# ---- query compound ----
IN: Given the compound CO[C@H]1/C=C/O[C@@]2(C)Oc3c(C)c(O)c4c(O)c(c(/C=N/N5CCN(C)CC5)c(O)c4c3C2=O)NC(=O)/C(C)=C\C=C\[C@H](C)[C@H](O)[C@@H](C)[C@@H](O)[C@@H](C)[C@H](OC(C)=O)[C@@H]1C , what is its reported MIC mg/L (diameter in mm)?
OUT: 16

###

tested on: Pseudomonas aeruginosa strain PaR3; assay: MIC of the compounds used alone, microdilution in a liquid medium (CLSI); format: cell-based; details: Pseudomonas aeruginosa, antibiotic alone (second value of cell), read-out: MIC
MEASURED QUANTITY: MIC (µg/mL)
State just the number; it will be interpreted in µg/mL.

NCC[C@H](O)C(=O)N[C@@H]1C[C@H](N)[C@@H](O[C@H]2O[C@H](CN)[C@@H](O)[C@H](O)[C@H]2O)[C@H](O)[C@H]1O[C@H]1O[C@H](CO)[C@@H](O)[C@H](N)[C@H]1O; 1
NC[C@H]1O[C@H](O[C@H]2[C@H](O)[C@@H](O[C@H]3O[C@H](CO)[C@@H](O)[C@H](N)[C@H]3O)[C@H](N)C[C@@H]2N)[C@H](N)C[C@@H]1O; 64
C[C@@H](O)[C@H]1C(=O)N2C(C(=O)O)=C(SCCN=CN)C[C@H]12; 32
CO[C@H]1/C=C/O[C@@]2(C)Oc3c(C)c(O)c4c(O)c(c(/C=N/N5CCN(C)CC5)c(O)c4c3C2=O)NC(=O)/C(C)=C\C=C\[C@H](C)[C@H](O)[C@@H](C)[C@@H](O)[C@@H](C)[C@H](OC(C)=O)[C@@H]1C; 32

# ---- query molecule ----
IN: Given the molecule CC(C)(O/N=C(\C(=O)N[C@@H]1C(=O)N2C(C(=O)[O-])=C(C[n+]3ccccc3)CS[C@H]12)c1csc(N)n1)C(=O)O , what is its reported MIC?
OUT: 16

###

assay: MIC of the compounds used alone, microdilution in a liquid medium (CLSI); format: cell-based, Staphylococcus aureus; settings: Staphylococcus aureus, MRSA; antibiotic alone (second value of cell); SaR4; read-out: MIC
Listing of recorded MIC by entry.
State just the number; it will be interpreted in µg/mL.

# annotated cases, reported MIC shown
C[C@@H](O)[C@H]1C(=O)N2C(C(=O)O)=C(SCCN=CN)C[C@H]12 [Imipenem]; 2
CC(=O)O[C@H]1C[C@@]2(C)[C@@H](C[C@@H](O)[C@H]3[C@@]4(C)CC[C@@H](O)[C@@H](C)[C@@H]4CC[C@@]32C)/C1=C(\CCC=C(C)C)C(=O)O [Fusidic acid]; 4

# ---- query compound ----
IN: Given the compound [H]/N=C(/N)N[C@H]1[C@H](O)[C@@H](O)[C@H](O[C@@H]2O[C@@H](C)[C@](O)(C=O)[C@H]2O[C@@H]2O[C@@H](CO)[C@H](O)[C@@H](O)[C@@H]2NC)[C@@H](N/C(N)=N\[H])[C@@H]1O [Streptomycin] , what is its reported MIC?
OUT: 4

###

test system: SaR3: Meticillin-Resistant Staphylococcus aureus; test: Antibiogram by the disk diffusion technique; assay type: cell-based; conditions: Cd CLSI 2011
MEASURED QUANTITY: CLSI Interpretation

# annotated cases, reported CLSI Interpretation shown
CC[C@H]1OC(=O)[C@H](C)[C@@H](O[C@H]2C[C@@](C)(OC)[C@@H](O)[C@H](C)O2)[C@H](C)[C@@H](O[C@@H]2O[C@H](C)C[C@H](N(C)C)[C@H]2O)[C@](C)(O)C[C@@H](C)C(=O)[C@H](C)[C@@H](O)[C@]1(C)O; Susceptible
NC[C@H]1O[C@H](O[C@H]2[C@H](O)[C@@H](O[C@H]3O[C@H](CO)[C@@H](O)[C@H](N)[C@H]3O)[C@H](N)C[C@@H]2N)[C@H](N)C[C@@H]1O; Resistant
CO[C@@]1(NC(=O)Cc2cccs2)C(=O)N2C(C(=O)O)=C(COC(N)=O)CS[C@@H]21; Resistant
CC1(C)S[C@@H]2[C@H](NC(=O)Cc3ccccc3)C(=O)N2[C@H]1C(=O)O; Resistant

# ---- query molecule ----
IN: Given the molecule CC(=O)NC[C@H]1CN(c2ccc(N3CCOCC3)c(F)c2)C(=O)O1 , what is its reported CLSI Interpretation?
OUT: Susceptible
